assay: Reversal of P-gp-mediated multidrug resistance in human K562/A02 cells assessed as reduction of adriamycin IC50 at 2.5 uM after 48 hrs by MTT assay; type: cell-based; conditions: K562/A02, 48 h
Recorded IC50, one value per entry.
Metric: IC50 (µM)

Compound	Endpoint result
COc1cc2c(cc1OC)CN(CCn1cc(COc3ccccc3NC(=O)c3ccc(C(C)(C)C)cc3)nn1)CC2	2.97
COc1ccc(CCN(C)CCCC(C#N)(c2ccc(OC)c(OC)c2)C(C)C)cc1OC (configuration not stated)	15.9

====

assay: Reversal of P-gp-mediated multidrug resistance in human K562/A02 cells assessed as reduction of adriamycin IC50 at 5 uM incubated for 24 hrs followed by adriamycin treatment 6 hrs post compound washout measured after 48 hrs by MTT assay; type: cell-based
Below, each entry is listed with its recorded IC50.
Metric: IC50 (µM)

Compound	Prefix operator	Endpoint result
COc1ccc(CCN(C)CCCC(C#N)(c2ccc(OC)c(OC)c2)C(C)C)cc1OC (configuration not stated)	>	80
COc1cc2c(cc1OC)CN(CCn1cc(COc3ccccc3NC(=O)c3ccc(C(C)(C)C)cc3)nn1)CC2	=	35.6

====

assay: Reversal of P-gp-mediated multidrug resistance in human K562/A02 cells assessed as reduction of adriamycin IC50 at 0.31 uM after 48 hrs by MTT assay; format: cell-based; settings: K562/A02, 48 h
pIC50: −log10 of the molar value.

Smiles text	pIC50
COc1cc2c(cc1OC)CN(CCn1cc(COc3ccccc3NC(=O)c3ccc(C(C)(C)C)cc3)nn1)CC2	5.19

====

assay: Reversal of P-gp-mediated multidrug resistance in human K562/A02 cells assessed as reduction of adriamycin IC50 at 1.25 uM after 48 hrs by MTT assay; format: cell-based; settings: K562/A02, 48 h

Smiles text	IC50 / µM
COc1cc2c(cc1OC)CN(CCn1cc(COc3ccccc3NC(=O)c3ccc(C(C)(C)C)cc3)nn1)CC2	3.14
